Reported mass density values for the following compounds.
Settings: 333.15 K; 101.33 kPa; Liquid; Vibrating tube method
Value expressed in kg/m3; do not type the unit.

Entry CCCC[N+](C)(C)C.O=S(=O)([N-]S(=O)(=O)C(F)(F)F)C(F)(F)F [butyltrimethylammonium bis(trifluoromethylsulfonyl)imide] needs its mass density filled in; supply it.
1363.7

Please report the measured mass density for CCCC[N+](C)(CCCC)CCCC.O=S(=O)([N-]S(=O)(=O)C(F)(F)F)C(F)(F)F [tributylmethylammonium bis((trifluoromethyl)sulfonyl)imide]
1233.6

Tell me its mass density given CC[S+](C)CC.O=S(=O)([N-]S(=O)(=O)C(F)(F)F)C(F)(F)F [diethylmethylsulfonium bis[(trifluoromethyl)sulfonyl]imide] as the entry.
1468.5

Return value of mass density for input CC[S+](CC)CC.O=S(=O)([N-]S(=O)(=O)C(F)(F)F)C(F)(F)F [triethylsulfonium bis((trifluoromethyl)sulfonyl)imide] , no commentary.
1428.7

* * *

Details: 328.15 K; 101.33 kPa; Liquid; Cone and plate viscometry
Measured viscosity, listed per entry for reference.
API: value field is a number in mPa·s; no unit string.

CCCC[N+](C)(CCCC)CCCC.O=S(=O)([N-]S(=O)(=O)C(F)(F)F)C(F)(F)F [tributylmethylammonium bis((trifluoromethyl)sulfonyl)imide] = 81.5
CC[S+](C)CC.O=S(=O)([N-]S(=O)(=O)C(F)(F)F)C(F)(F)F [diethylmethylsulfonium bis[(trifluoromethyl)sulfonyl]imide] = 15.9
CCCC[N+](C)(C)C.O=S(=O)([N-]S(=O)(=O)C(F)(F)F)C(F)(F)F [butyltrimethylammonium bis(trifluoromethylsulfonyl)imide] = 30.2

Supply reported viscosity belonging to this molecule: CC[S+](CC)CC.O=S(=O)([N-]S(=O)(=O)C(F)(F)F)C(F)(F)F [triethylsulfonium bis((trifluoromethyl)sulfonyl)imide]
13.4

* * *

Recorded refractive index, one value per entry.
Assay: refractive index (Na D-line) (dimensionless)
Settings: 283.15 K; 101.33 kPa; Liquid; Standard Abbe refractometry
The reply should be a number, written without any unit.

CC[S+](C)CC.O=S(=O)([N-]S(=O)(=O)C(F)(F)F)C(F)(F)F [diethylmethylsulfonium bis[(trifluoromethyl)sulfonyl]imide] = 1.42745
CCCC[N+](C)(CCCC)CCCC.O=S(=O)([N-]S(=O)(=O)C(F)(F)F)C(F)(F)F [tributylmethylammonium bis((trifluoromethyl)sulfonyl)imide] = 1.4308
CC[S+](CC)CC.O=S(=O)([N-]S(=O)(=O)C(F)(F)F)C(F)(F)F [triethylsulfonium bis((trifluoromethyl)sulfonyl)imide] = 1.43056

Let me know recorded refractive index for CCCC[N+](C)(C)C.O=S(=O)([N-]S(=O)(=O)C(F)(F)F)C(F)(F)F [butyltrimethylammonium bis(trifluoromethylsulfonyl)imide] , thanks.
1.4122

* * *

refractive index values, listed per item
Assay: refractive index (Na D-line) (dimensionless)
Conditions: 353.15 K; 101.33 kPa; Liquid; Standard Abbe refractometry
// no unit, no text: just the number

Examples with answers:
CC[S+](CC)CC.O=S(=O)([N-]S(=O)(=O)C(F)(F)F)C(F)(F)F [triethylsulfonium bis((trifluoromethyl)sulfonyl)imide] = 1.41077
CC[S+](C)CC.O=S(=O)([N-]S(=O)(=O)C(F)(F)F)C(F)(F)F [diethylmethylsulfonium bis[(trifluoromethyl)sulfonyl]imide] = 1.40793
CCCC[N+](C)(CCCC)CCCC.O=S(=O)([N-]S(=O)(=O)C(F)(F)F)C(F)(F)F [tributylmethylammonium bis((trifluoromethyl)sulfonyl)imide] = 1.4104

Please give measured refractive index of the following entry: CCCC[N+](C)(C)C.O=S(=O)([N-]S(=O)(=O)C(F)(F)F)C(F)(F)F [butyltrimethylammonium bis(trifluoromethylsulfonyl)imide]
1.39358

* * *

Settings: 318.15 K; 101.33 kPa; Liquid; Vibrating tube method
Numbers after ± are expanded uncertainties.
Property: mass density; scope: individual molecules
Write the numeric value and follow it with the unit.

Recorded results for 3 molecules are shown here.
CC[S+](CC)CC.O=S(=O)([N-]S(=O)(=O)C(F)(F)F)C(F)(F)F [triethylsulfonium bis((trifluoromethyl)sulfonyl)imide] = 1442.8 ± 1.2 kg/m3
CC[S+](C)CC.O=S(=O)([N-]S(=O)(=O)C(F)(F)F)C(F)(F)F [diethylmethylsulfonium bis[(trifluoromethyl)sulfonyl]imide] = 1482.8 ± 1.2 kg/m3
CCCC[N+](C)(C)C.O=S(=O)([N-]S(=O)(=O)C(F)(F)F)C(F)(F)F [butyltrimethylammonium bis(trifluoromethylsulfonyl)imide] = 1376.6 ± 1.1 kg/m3

Turning now to a further record.
Name the recorded mass density of the molecule listed here: CCCC[N+](C)(CCCC)CCCC.O=S(=O)([N-]S(=O)(=O)C(F)(F)F)C(F)(F)F [tributylmethylammonium bis((trifluoromethyl)sulfonyl)imide]
1245.8 ± 1.1 kg/m3

* * *

We begin with a simple list: items and their reported mass density.
Conditions: 308.15 K; 101.33 kPa; Liquid; Vibrating tube method
State the answer as a number, implicitly in kg/m3.

Illustrative cases are given below, each with its answer.
CCCC[N+](C)(C)C.O=S(=O)([N-]S(=O)(=O)C(F)(F)F)C(F)(F)F [butyltrimethylammonium bis(trifluoromethylsulfonyl)imide] = 1385.4
CCCC[N+](C)(CCCC)CCCC.O=S(=O)([N-]S(=O)(=O)C(F)(F)F)C(F)(F)F [tributylmethylammonium bis((trifluoromethyl)sulfonyl)imide] = 1254.1
CC[S+](C)CC.O=S(=O)([N-]S(=O)(=O)C(F)(F)F)C(F)(F)F [diethylmethylsulfonium bis[(trifluoromethyl)sulfonyl]imide] = 1492.4

Next:
For the compound CC[S+](CC)CC.O=S(=O)([N-]S(=O)(=O)C(F)(F)F)C(F)(F)F [triethylsulfonium bis((trifluoromethyl)sulfonyl)imide] , give its reported mass density.
1452.4

* * *

compounds and their reported mass density
Conditions: 298.15 K; 101.33 kPa; Liquid; Vibrating tube method
Numbers after ± are expanded uncertainties.
The reply must contain the numeric value and, after it, the unit.

CCCC[N+](C)(CCCC)CCCC.O=S(=O)([N-]S(=O)(=O)C(F)(F)F)C(F)(F)F [tributylmethylammonium bis((trifluoromethyl)sulfonyl)imide] = 1262.8 ± 1.1 kg/m3
CCCC[N+](C)(C)C.O=S(=O)([N-]S(=O)(=O)C(F)(F)F)C(F)(F)F [butyltrimethylammonium bis(trifluoromethylsulfonyl)imide] = 1394.2 ± 1.1 kg/m3
CC[S+](C)CC.O=S(=O)([N-]S(=O)(=O)C(F)(F)F)C(F)(F)F [diethylmethylsulfonium bis[(trifluoromethyl)sulfonyl]imide] = 1502.3 ± 1.2 kg/m3

Moving on to the next compound.
Supply recorded mass density for CC[S+](CC)CC.O=S(=O)([N-]S(=O)(=O)C(F)(F)F)C(F)(F)F [triethylsulfonium bis((trifluoromethyl)sulfonyl)imide] here.
1462.1 ± 1.2 kg/m3

* * *

Quick reference: refractive index of the listed items.
Test: refractive index (Na D-line) (dimensionless)
Conditions: 313.15 K; 101.33 kPa; Liquid; Standard Abbe refractometry
Numbers after ± are expanded uncertainties.

Look over these answered cases.
CCCC[N+](C)(C)C.O=S(=O)([N-]S(=O)(=O)C(F)(F)F)C(F)(F)F [butyltrimethylammonium bis(trifluoromethylsulfonyl)imide] = 1.40405 ± 0.00037
CC[S+](CC)CC.O=S(=O)([N-]S(=O)(=O)C(F)(F)F)C(F)(F)F [triethylsulfonium bis((trifluoromethyl)sulfonyl)imide] = 1.42185 ± 0.00037

Please supply the value of reported refractive index for the item CCCC[N+](C)(CCCC)CCCC.O=S(=O)([N-]S(=O)(=O)C(F)(F)F)C(F)(F)F [tributylmethylammonium bis((trifluoromethyl)sulfonyl)imide]
1.42194 ± 0.00037

Give the value of refractive index reported for the following: CC[S+](C)CC.O=S(=O)([N-]S(=O)(=O)C(F)(F)F)C(F)(F)F [diethylmethylsulfonium bis[(trifluoromethyl)sulfonyl]imide]
1.41886 ± 0.00037

* * *

Conditions: 343.15 K; 101.33 kPa; Liquid; Vibrating tube method
Numbers after ± are expanded uncertainties.
Below is a list of entries, each paired with its recorded mass density value.

CCCC[N+](C)(CCCC)CCCC.O=S(=O)([N-]S(=O)(=O)C(F)(F)F)C(F)(F)F [tributylmethylammonium bis((trifluoromethyl)sulfonyl)imide] = 1225.5 ± 1.1 kg/m3
CC[S+](C)CC.O=S(=O)([N-]S(=O)(=O)C(F)(F)F)C(F)(F)F [diethylmethylsulfonium bis[(trifluoromethyl)sulfonyl]imide] = 1459.1 ± 1.2 kg/m3
CC[S+](CC)CC.O=S(=O)([N-]S(=O)(=O)C(F)(F)F)C(F)(F)F [triethylsulfonium bis((trifluoromethyl)sulfonyl)imide] = 1419.4 ± 1.1 kg/m3

Turning now to a further record.
Report mass density for CCCC[N+](C)(C)C.O=S(=O)([N-]S(=O)(=O)C(F)(F)F)C(F)(F)F [butyltrimethylammonium bis(trifluoromethylsulfonyl)imide]
1355.2 ± 1.1 kg/m3

* * *

Conditions: 308.15 K; 101.33 kPa; Liquid; Cone and plate viscometry
measurement name: viscosity (mPa·s)
Number in mPa·s, nothing else.

Guide cases for viscosity, answers given:
CCCC[N+](C)(C)C.O=S(=O)([N-]S(=O)(=O)C(F)(F)F)C(F)(F)F [butyltrimethylammonium bis(trifluoromethylsulfonyl)imide] = 65.2
CC[S+](C)CC.O=S(=O)([N-]S(=O)(=O)C(F)(F)F)C(F)(F)F [diethylmethylsulfonium bis[(trifluoromethyl)sulfonyl]imide] = 28.7
CCCC[N+](C)(CCCC)CCCC.O=S(=O)([N-]S(=O)(=O)C(F)(F)F)C(F)(F)F [tributylmethylammonium bis((trifluoromethyl)sulfonyl)imide] = 260.4

# evaluate next
Supply reported viscosity belonging to this compound: CC[S+](CC)CC.O=S(=O)([N-]S(=O)(=O)C(F)(F)F)C(F)(F)F [triethylsulfonium bis((trifluoromethyl)sulfonyl)imide]
23.8
